Data credit: patent US20220220103A1

# target of assay: CDK1/B (Homo sapiens)
# Sequence (P06493 whole entry): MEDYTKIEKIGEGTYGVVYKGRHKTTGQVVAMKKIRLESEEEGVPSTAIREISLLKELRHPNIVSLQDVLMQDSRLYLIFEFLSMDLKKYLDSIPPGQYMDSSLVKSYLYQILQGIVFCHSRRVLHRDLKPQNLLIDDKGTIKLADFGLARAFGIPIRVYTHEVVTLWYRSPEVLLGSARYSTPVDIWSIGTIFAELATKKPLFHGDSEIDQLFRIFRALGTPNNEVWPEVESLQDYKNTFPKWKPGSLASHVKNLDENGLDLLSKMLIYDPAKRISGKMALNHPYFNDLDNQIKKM
# Sequence (P14635 whole entry partner): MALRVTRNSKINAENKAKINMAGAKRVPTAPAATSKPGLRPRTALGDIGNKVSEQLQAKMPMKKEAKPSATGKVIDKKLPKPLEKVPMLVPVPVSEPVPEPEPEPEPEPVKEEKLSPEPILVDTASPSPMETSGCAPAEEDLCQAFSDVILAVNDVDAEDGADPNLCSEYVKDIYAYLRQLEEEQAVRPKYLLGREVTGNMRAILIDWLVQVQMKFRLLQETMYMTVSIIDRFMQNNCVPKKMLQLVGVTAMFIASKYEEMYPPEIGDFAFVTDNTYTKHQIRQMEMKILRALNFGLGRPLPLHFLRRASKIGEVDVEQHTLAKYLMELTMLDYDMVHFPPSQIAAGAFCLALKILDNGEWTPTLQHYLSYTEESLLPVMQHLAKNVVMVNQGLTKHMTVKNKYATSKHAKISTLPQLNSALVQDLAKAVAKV
# experiment description: Inhibition assay, CDK1/B
# Assay type: biochemical
# assay setup: Table 3a; read-out: CDK1/B IC50
Assign pIC50 to each entry below.
In textbook form, pIC50 equals minus log to base ten of the concentration in mol/L.

Exam item: Note pIC50 for the molecule shown: `CN(C)C(=O)c1cc2cnc(NC3CCN(S(C)(=O)=O)CC3)nc2n(C2CCCC2)c1=O`
Marked response: 6.12

Exam item: Note pIC50 for the molecule shown: `N#Cc1cc2cnc(Nc3ccc(N4CCN(CCO)CC4)c(F)c3)nc2n(C2CCCC2)c1=O`
Marked response: 6.29

Exam item: Note pIC50 for the molecule shown: `CC(=O)c1c(C)c2cnc(Nc3ccc(OCCN(C)C)cc3)nc2n(C2CCCC2)c1=O`
Marked response: 6.28

Exam item: Note pIC50 for the molecule shown: `CN1CC2(C1)CN(c1ccc(Nc3ncc4cc(C#N)c(=O)n(C5CCCC5)c4n3)cc1)C2`
Marked response: 5.89

Exam item: Note pIC50 for the molecule shown: `Cc1c(C(=O)N(C)C)c(=O)n(C23CC(C2)C3)c2nc(NC3CCN(S(C)(=O)=O)CC3)ncc12`
Marked response: 5.55

Exam item: Note pIC50 for the molecule shown: `CC(=O)c1c(C)c2cnc(Nc3ccc(N4CCN(C)CC4)cc3)nc2n(C23CC(C2)C3)c1=O`
Marked response: 5.39

Exam item: Note pIC50 for the molecule shown: `CC(=O)c1c(C)c2cnc(Nc3ccc(N(C)CCN(C)C)cc3)nc2n(C23CC(C2)C3)c1=O`
Marked response: 5.76

Exam item: Note pIC50 for the molecule shown: `CC(=O)c1c(C)c2cnc(Nc3ccc(N(C)CCN(C)C)cc3)nc2n(C2CCCC2)c1=O`
Marked response: 6.76

Exam item: Note pIC50 for the molecule shown: CC(=O)c1c(C)c2cnc(Nc3ccc(N4CC(C)NC(C)C4)cc3)nc2n(C2CCCC2)c1=O (stereo not shown)
Marked response: 6.30

---

# target of assay: CDK4-CYCLIND1 (Homo sapiens, UniProt P11802)
# Sequence (P11802 whole entry): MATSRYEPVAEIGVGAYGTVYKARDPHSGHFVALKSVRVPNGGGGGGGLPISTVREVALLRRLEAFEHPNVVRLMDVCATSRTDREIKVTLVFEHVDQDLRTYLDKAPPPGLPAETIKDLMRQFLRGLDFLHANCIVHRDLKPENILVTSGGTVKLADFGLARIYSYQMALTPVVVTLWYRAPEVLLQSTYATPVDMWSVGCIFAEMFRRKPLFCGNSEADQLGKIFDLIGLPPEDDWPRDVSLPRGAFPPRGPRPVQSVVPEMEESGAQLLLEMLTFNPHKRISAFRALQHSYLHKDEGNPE
# Sequence (P24385 whole entry partner): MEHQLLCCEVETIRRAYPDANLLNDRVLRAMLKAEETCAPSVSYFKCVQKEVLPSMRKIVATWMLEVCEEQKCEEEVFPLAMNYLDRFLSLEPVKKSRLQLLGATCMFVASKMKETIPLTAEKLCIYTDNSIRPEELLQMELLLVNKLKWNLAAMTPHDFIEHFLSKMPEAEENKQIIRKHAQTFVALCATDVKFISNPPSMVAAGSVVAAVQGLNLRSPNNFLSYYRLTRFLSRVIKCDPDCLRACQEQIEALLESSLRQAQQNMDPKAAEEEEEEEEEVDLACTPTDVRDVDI
# experiment description: Microfluidic LabChip inhibition assay, CDK4-CYCLIND1
# Format: biochemical
# assay setup: Table 3b; ATP 200 μM; second values in parentheses on the line below, not explained; read-out: CDK4 CyclinD1 IC50
pIC50: −log10 of the molar value.
Decision: pIC50 >= 6 yields TRUE, all other cases yield FALSE.

Exam item: In plain terms: is recorded pIC50 at least 6 for `N#Cc1cc2cnc(Nc3ccc(N4CCNCC4)c(F)c3)nc2n(C23CC(C2)C3)c1=O` ?
Marked response: TRUE

Exam item: In plain terms: is recorded pIC50 at least 6 for CC(=O)c1c(C)c2cnc(Nc3ccc(N(C)CCN(C)C)cc3)nc2n(C2CCCC2)c1=O [Compound B64] ?
Marked response: TRUE

Exam item: In plain terms: is recorded pIC50 at least 6 for `CC(=O)c1c(C)c2cnc(Nc3ccc(OCCN(C)C)cn3)nc2n(C2CCCC2)c1=O` ?
Marked response: TRUE

Exam item: In plain terms: is recorded pIC50 at least 6 for `CN1CCN(c2ccc(Nc3ncc4cc(C#N)c(=O)n(C56CC(C5)C6)c4n3)cc2F)CC1` ?
Marked response: TRUE

Exam item: In plain terms: is recorded pIC50 at least 6 for Cc1c(C(=O)N(C)C)c(=O)n(C23CC(C2)C3)c2nc(NC3CC4CCC3C4)ncc12 (stereo not drawn) [Compound B158] ?
Marked response: FALSE
